- target-or-system: Synaptic vesicular amine transporter (Rattus norvegicus)
- Sequence (Q01827 whole entry): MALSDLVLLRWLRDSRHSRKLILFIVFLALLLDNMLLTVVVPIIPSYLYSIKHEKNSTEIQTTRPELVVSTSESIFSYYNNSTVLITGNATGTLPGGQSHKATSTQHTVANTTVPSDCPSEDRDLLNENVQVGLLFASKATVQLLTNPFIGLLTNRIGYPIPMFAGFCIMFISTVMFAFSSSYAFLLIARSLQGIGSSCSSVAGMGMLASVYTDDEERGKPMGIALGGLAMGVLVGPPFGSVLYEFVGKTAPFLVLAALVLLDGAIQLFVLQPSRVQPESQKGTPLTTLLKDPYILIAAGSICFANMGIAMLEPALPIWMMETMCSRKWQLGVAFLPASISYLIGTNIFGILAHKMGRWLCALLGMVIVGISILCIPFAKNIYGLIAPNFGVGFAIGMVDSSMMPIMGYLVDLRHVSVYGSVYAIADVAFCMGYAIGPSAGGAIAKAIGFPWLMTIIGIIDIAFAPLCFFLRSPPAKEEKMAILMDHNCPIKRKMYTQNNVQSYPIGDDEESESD
- test-description: Displacement of [3H]DTBZ from VMAT2 in rat synaptic vesicle membranes after 30 mins by liquid scintillation counting
- Format: cell membranes, Membrane
reported-endpoint: Ki

>  <molecule>
CN1[C@@H](CCc2ccc3ccccc3n2)CCC[C@H]1CCc1ccc2ccccc2n1

>  <reported-endpoint>
Ki

>  <recorded-value>
0.96 µM

$$$$
>  <molecule>
CN1[C@@H](CCc2ccncc2)CCC[C@H]1CCc1ccncc1

>  <reported-endpoint>
Ki

>  <recorded-value>
5.87 µM

$$$$
>  <molecule>
CN1[C@@H](CCc2c[nH]c3ccccc23)CCC[C@H]1CCc1c[nH]c2ccccc12

>  <reported-endpoint>
Ki

>  <recorded-value>
26 µM

$$$$
>  <molecule>
CN1[C@@H](CCc2cccnc2)CCC[C@H]1CCc1cccnc1

>  <reported-endpoint>
Ki

>  <recorded-value>
33.3 µM

$$$$
>  <molecule>
CN1[C@@H](CCc2ccnc3ccccc23)CCC[C@H]1CCc1ccnc2ccccc12.Cl [QUINLOBELANE]

>  <reported-endpoint>
Ki

>  <recorded-value>
2.64 µM

$$$$
